# target: TDO enzyme (Homo sapiens, UniProt P48775)
# Construct: 6xHis (N); made in house; host or cells: Escherichia coli BL21 (DE3) (pET 28a vector)
# Sequence (P48775 whole entry): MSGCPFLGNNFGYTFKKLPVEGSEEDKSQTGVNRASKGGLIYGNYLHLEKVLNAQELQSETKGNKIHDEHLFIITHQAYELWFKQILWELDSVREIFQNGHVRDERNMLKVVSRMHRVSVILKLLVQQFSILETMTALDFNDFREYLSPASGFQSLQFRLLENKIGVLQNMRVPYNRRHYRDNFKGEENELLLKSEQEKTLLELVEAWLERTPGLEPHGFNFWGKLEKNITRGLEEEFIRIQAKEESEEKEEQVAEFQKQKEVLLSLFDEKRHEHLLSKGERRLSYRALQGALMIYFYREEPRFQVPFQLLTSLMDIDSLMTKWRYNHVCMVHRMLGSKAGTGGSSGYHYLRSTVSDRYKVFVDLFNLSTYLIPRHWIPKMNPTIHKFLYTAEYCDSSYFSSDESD
# runDescription: HPLC based TDO inhibition assay
# Type: biochemical
# conditions: 4 µM
outcomeMeasure: inhibition at 4 µM (%)

INSERT INTO measurements (compound, endpointresult) VALUES
  ('NC(=O)c1n[nH]nc1-c1ccccc1 [Compound 3a]', 22),
  ('NS(=O)(=O)NCCNC(=O)c1n[nH]nc1-c1ccc(F)c(F)c1 [Compound 4k]', 58),
  ('NS(=O)(=O)NCCNC(=O)c1n[nH]nc1-c1ccc(Cl)c(Cl)c1 [Compound 4l]', 29),
  ('CCOC(=O)c1n[nH]nc1-c1ccccc1 [Compound 2a]', 68);

---

# target: IDO1 (Homo sapiens)
# Sequence (P14902 whole entry): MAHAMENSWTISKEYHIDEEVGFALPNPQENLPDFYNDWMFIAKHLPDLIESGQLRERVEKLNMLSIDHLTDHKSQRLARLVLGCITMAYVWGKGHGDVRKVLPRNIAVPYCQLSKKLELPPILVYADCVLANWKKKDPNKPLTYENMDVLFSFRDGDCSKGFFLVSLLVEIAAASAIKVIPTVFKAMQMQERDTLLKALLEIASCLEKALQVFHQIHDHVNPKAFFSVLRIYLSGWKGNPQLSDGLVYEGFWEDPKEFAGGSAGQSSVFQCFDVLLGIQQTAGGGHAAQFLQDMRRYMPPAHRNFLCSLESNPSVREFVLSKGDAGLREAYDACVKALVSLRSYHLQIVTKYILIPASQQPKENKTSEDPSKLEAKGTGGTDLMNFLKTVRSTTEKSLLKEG
# runDescription: Circular dichroism analysis of IDO1 enzyme
# Parameters: made in house; host or cells: Escherichia coli M15 (pQE30 vector with pREP4 plasmid)
# conditions: compound 4 µM
outcomeMeasure: % of Secondary structural elements, Turn (%)

INSERT INTO assay_data (givensmiles, target, outcomemeasure, endpointresult) VALUES
  ('O=C(N/C(Cc1ccc(O)cc1)=N\O)c1n[nH]nc1-c1ccc(F)c(F)c1', 'IDO1 (Homo sapiens)', '% of Secondary structural elements, Turn', 29.4),
  ('NC(=O)c1n[nH]nc1-c1ccc(F)c(F)c1', 'IDO1 (Homo sapiens)', '% of Secondary structural elements, Turn', 8.9),
  ('NS(=O)(=O)NCCNC(=O)c1n[nH]nc1-c1ccc(F)c(F)c1', 'IDO1 (Homo sapiens)', '% of Secondary structural elements, Turn', 34.5),
  ('CCOC(=O)c1n[nH]nc1-c1ccc(F)c(F)c1', 'IDO1 (Homo sapiens)', '% of Secondary structural elements, Turn', 33.8);

---

# target: purified human TDO enzyme (Homo sapiens)
# Construct: 6xHis (N); made in house; host or cells: Escherichia coli BL21 (DE3) (pET 28a vector)
# runDescription: TDO inhibition assay by the spectrometric method
# Type: biochemical
# conditions: spectrophotometric; 20 µM
Please use 1 whenever inhibition at 20 µM is not below 30%, and 0 whenever it is.

INSERT INTO results (compound, class) VALUES
  ('CCOC(=O)c1n[nH]nc1-c1ccccc1 [Compound 2a]', 0),
  ('NS(=O)(=O)NCCNC(=O)c1n[nH]nc1-c1ccc(F)c(F)c1 [Compound 4k]', 1),
  ('NS(=O)(=O)NCCNC(=O)c1n[nH]nc1-c1ccc(Cl)c(Cl)c1 [Compound 4l]', 0),
  ('NC(=O)c1n[nH]nc1-c1ccccc1 [Compound 3a]', 0),
  ('c1ccc(-c2nn[nH]c2-c2ccccc2)cc1 [Compound 1a, 4,5-diphenyl 2H-1,2,3-triazole]', 1);

---

The entries below are paired with their reported % of Enzyme inhibition (TDO).
# target: purified human TDO enzyme (Homo sapiens, UniProt P48775)
# Construct: 6xHis (N); made in house; host or cells: Escherichia coli BL21 (DE3) (pET 28a vector)
# runDescription: TDO inhibition assay by the spectrometric method
# Format: biochemical
# conditions: spectrophotometric; 32 nM
outcomeMeasure: % of Enzyme inhibition (TDO) (%)

INSERT INTO results (compound, unitofmeasure, endpointresult) VALUES
  ('CCOC(=O)c1n[nH]nc1-c1ccc(Cl)c(Cl)c1 [Compound 2j]', '%', 8),
  ('CCOC(=O)c1n[nH]nc1-c1ccc(Cl)cc1 [Compound 2g]', '%', 16),
  ('O=C(N/C(Cc1ccc(O)cc1)=N\O)c1n[nH]nc1-c1ccc(F)c(F)c1 [Compound 4i]', '%', 4),
  ('NC(=O)c1n[nH]nc1-c1ccc(Cl)cc1 [Compound 3g]', '%', 5),
  ('CCOC(=O)c1n[nH]nc1-c1ccc(F)c(F)c1 [Compound 2i]', '%', 2),
  ('NC(=O)c1n[nH]nc1-c1ccc(F)c(F)c1 [Compound 3i]', '%', 5),
  ('O=C(O)c1n[nH]nc1-c1ccc(F)c(F)c1 [Compound 4a]', '%', 4),
  ('NC(=O)c1n[nH]nc1-c1ccc(Cl)c(Cl)c1 [Compound 3j]', '%', 6);
